In what follows, each item is paired with its log10(IC50) for Apoptosis regulator Bcl-2 (Homo sapiens, UniProt P10415).
Answers are given as log10 of IC50 in nM.

Worked examples follow.
>  <Smiles Input>
CN(C)CC[C@H](CSc1ccccc1)Nc1ccc(S(=O)(=O)Nc2ncnc3cc(N4CCN(Cc5ccccc5-c5ccc(Cl)cc5)CC4)ccc23)cc1S(=O)(=O)C(F)(F)F

>  <Recorded Measurement>
1.11

$$$$
>  <Smiles Input>
CN(C)CC[C@H](CSc1ccccc1)Nc1ccc(S(=O)(=O)Nc2ncnc3cc(N4CCN(Cc5ccccc5-c5ccc(Cl)cc5)CC4)ccc23)cc1[N+](=O)[O-]

>  <Recorded Measurement>
0.94

$$$$
>  <Smiles Input>
CC1(C)CCC(c2ccc(Cl)cc2)=C(CN2CCN(c3ccc4c(NS(=O)(=O)c5ccc(N[C@H](CCN6CCOCC6)CSc6ccccc6)c([N+](=O)[O-])c5)ncnc4c3)CC2)C1

>  <Recorded Measurement>
1.32

$$$$

Each compound below has a recorded value; state its log10(IC50).
1. CN(C)CC[C@H](CSc1ccccc1)Nc1ccc(S(=O)(=O)Nc2ncnc3cc(N4CCN(CC5=C(c6ccc(Cl)cc6)CCC(C)(C)C5)CC4)ccc23)cc1S(=O)(=O)C(F)(F)F
2. CC1(C)CCC(c2ccc(Cl)cc2)=C(CN2CCN(c3ccc4c(NS(=O)(=O)c5ccc(N[C@H](CCN6CCOCC6)CSc6ccccc6)c(S(=O)(=O)C(F)(F)F)c5)ncnc4c3)CC2)C1

[reply]
1. 0.70
2. 1.92
